Target: VDR (Homo sapiens, UniProt P11473)
Sequence (P11473 whole entry, the tested form may be a part): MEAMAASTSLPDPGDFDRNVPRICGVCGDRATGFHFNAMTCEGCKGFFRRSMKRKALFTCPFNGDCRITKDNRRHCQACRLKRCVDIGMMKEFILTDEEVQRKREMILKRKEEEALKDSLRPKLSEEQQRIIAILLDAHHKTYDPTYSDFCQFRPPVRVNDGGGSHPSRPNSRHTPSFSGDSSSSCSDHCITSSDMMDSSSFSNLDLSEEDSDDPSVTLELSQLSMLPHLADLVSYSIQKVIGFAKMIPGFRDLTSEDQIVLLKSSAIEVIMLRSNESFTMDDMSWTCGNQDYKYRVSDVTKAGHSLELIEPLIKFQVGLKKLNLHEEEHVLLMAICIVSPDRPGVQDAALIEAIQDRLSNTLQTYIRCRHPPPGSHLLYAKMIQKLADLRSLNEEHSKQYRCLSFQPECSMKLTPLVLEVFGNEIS
Sequence (P19793 whole entry partner, the tested form may be a part): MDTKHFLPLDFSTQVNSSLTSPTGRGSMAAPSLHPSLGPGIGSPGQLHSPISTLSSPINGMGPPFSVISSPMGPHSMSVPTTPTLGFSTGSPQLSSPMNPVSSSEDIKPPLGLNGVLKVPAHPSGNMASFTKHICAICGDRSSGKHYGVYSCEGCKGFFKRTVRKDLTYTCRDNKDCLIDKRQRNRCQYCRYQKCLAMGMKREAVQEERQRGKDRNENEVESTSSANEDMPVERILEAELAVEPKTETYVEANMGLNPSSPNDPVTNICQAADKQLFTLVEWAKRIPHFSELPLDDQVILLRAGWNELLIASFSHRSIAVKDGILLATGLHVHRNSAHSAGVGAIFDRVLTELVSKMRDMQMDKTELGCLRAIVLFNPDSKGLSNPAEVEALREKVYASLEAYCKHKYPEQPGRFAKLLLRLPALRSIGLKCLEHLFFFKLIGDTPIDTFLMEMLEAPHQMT
Sequence (Q15648 whole entry partner, the tested form may be a part): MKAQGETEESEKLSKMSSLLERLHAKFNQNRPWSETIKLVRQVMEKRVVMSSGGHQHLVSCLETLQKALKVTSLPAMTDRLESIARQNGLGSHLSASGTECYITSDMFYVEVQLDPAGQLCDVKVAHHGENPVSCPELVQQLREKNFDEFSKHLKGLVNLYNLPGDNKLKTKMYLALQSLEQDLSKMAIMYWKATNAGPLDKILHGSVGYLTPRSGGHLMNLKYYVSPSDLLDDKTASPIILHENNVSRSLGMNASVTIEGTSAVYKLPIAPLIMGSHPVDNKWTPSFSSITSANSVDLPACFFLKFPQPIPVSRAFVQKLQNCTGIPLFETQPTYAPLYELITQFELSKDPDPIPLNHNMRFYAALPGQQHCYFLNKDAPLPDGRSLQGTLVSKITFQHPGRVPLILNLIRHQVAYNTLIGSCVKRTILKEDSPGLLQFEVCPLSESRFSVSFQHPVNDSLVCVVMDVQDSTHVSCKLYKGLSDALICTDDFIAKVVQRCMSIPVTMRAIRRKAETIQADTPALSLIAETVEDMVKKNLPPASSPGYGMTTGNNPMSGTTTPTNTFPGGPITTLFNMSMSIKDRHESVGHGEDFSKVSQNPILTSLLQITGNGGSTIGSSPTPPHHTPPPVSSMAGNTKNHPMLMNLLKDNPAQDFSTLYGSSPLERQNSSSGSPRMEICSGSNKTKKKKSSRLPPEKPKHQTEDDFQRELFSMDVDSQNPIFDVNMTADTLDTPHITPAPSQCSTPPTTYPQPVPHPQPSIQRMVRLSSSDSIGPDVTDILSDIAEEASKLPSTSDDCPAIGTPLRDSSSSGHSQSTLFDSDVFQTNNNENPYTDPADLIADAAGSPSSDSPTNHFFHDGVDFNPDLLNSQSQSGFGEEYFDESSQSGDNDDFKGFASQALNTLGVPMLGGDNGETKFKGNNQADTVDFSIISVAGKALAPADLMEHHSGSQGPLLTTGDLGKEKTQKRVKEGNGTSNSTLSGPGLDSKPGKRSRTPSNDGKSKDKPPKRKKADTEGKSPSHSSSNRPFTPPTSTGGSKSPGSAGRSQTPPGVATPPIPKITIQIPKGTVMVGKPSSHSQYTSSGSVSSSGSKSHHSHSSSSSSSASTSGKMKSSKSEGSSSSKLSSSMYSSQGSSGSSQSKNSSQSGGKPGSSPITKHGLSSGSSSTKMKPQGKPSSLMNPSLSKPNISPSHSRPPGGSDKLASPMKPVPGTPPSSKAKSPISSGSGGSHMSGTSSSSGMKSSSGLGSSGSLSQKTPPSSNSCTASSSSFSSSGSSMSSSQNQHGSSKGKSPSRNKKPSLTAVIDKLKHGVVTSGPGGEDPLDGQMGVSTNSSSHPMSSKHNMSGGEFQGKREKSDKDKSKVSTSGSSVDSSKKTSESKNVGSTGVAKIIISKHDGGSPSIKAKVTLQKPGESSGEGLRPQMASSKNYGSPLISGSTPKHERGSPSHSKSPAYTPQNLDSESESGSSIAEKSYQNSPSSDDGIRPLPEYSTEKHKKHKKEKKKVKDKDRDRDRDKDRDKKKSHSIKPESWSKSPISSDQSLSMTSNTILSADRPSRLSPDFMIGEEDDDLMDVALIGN
Test: Luminescent proximity homogeneous assay (AlphaScreen): interaction of purified VDR, RxR and TRAP220 coactivator fragment
Type: biochemical
Conditions: after illumination (365 nm) for 3 min; mean ± SEM, n >= 3; read-out: Activity (pEC50) (converted)
parameter: EC50 (nM)

Worked cases, EC50 given:
molecule="Cc1cc(/N=N/c2cccc(-c3ccc(C(=O)O)cc3)c2)ccc1OCC(O)C(C)(C)C (stereo not shown) [Compound 11a]" target_of_assay="VDR (Homo sapiens, UniProt P11473)" parameter=EC50 observed_result=1260
molecule="Cc1cc(OCC(O)C(C)(C)C)ccc1/N=N/c1cccc(-c2ccc(C(=O)O)cc2C)c1 (stereo not shown) [Compound 11d]" target_of_assay="VDR (Homo sapiens, UniProt P11473)" parameter=EC50 observed_result=209
molecule="Cc1cc(/N=N/c2cccc(-c3ccc(CO)cc3)c2)ccc1OCC(O)C(C)(C)C (stereo not shown) [Compound 12a]" target_of_assay="VDR (Homo sapiens, UniProt P11473)" parameter=EC50 observed_result=339
molecule="Cc1cc(OCC(O)C(C)(C)C)ccc1/N=N/c1cccc(-c2ccc(CO)cc2C)c1 (stereo not shown) [Compound 12d]" target_of_assay="VDR (Homo sapiens, UniProt P11473)" parameter=EC50 observed_result=95.5
molecule="COC(=O)c1ccc(-c2cccc(/N=N/c3ccc(OCC(O)C(C)(C)C)c(C)c3)c2)c(C)c1 (stereo not shown) [Compound 10c]" target_of_assay="VDR (Homo sapiens, UniProt P11473)" parameter=EC50 observed_result=1860

[I] COC(=O)c1ccc(-c2cccc(/N=N/c3ccc(OCC(O)C(C)(C)C)cc3C)c2)cc1 (stereo not shown) [Compound 10b]
[II] Cc1cc(/N=N/c2cccc(-c3ccc(C(=O)O)cc3C)c2)ccc1OCC(O)C(C)(C)C (stereo not shown) [Compound 11c]
Problem: # min-compare on EC50 between I and II Write down the label attached to your selection.
Solution: I
